- systemUnderTest: Human TRPV3 (Homo sapiens, UniProt Q8NET8)
- Construct: expressed in transfected cells; host or cells: CHO cells (G-418 selected)
- Sequence (Q8NET8 1-790): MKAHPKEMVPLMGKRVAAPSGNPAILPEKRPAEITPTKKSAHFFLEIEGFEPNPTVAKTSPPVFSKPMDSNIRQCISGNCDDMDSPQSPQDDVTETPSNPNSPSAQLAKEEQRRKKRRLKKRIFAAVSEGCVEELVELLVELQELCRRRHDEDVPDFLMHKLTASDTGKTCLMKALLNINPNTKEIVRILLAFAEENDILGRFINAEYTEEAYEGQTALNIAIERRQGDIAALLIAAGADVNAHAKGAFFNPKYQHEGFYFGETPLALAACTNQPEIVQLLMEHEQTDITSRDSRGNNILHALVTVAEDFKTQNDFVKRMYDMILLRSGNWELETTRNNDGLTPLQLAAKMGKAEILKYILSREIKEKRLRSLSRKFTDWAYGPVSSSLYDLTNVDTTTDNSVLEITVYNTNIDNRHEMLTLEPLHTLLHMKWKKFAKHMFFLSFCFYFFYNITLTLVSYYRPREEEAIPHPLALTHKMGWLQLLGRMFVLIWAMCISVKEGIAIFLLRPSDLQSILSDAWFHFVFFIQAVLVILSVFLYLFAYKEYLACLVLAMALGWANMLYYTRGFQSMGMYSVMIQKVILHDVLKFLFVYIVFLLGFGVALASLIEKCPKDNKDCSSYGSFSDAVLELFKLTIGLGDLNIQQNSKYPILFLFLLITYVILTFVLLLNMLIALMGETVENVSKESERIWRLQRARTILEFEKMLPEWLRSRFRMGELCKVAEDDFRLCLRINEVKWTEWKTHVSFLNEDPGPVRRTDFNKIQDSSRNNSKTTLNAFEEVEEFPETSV
- testName: 45Calcium uptake assay: inhibition of 2-APB induced cellular uptake of radioactive calcium
- Assay type: cell-based
- statedConditions: 1.0 μM compound; human TRPV3 expressing CHO cells; 2-APB 500 μM; read-out: Percentage inhibition at 1.0 μM
- Procedure: The illustrative examples of the present invention are screened for TRPV3 activity according to a modified procedure described in Toth, A. et al. Life Sciences (2003), 73, 487-498. […] The inhibition of TRPV3 receptor activation was followed as inhibition of 2-APB induced cellular uptake of radioactive calcium. […] Radioactivity in the lysate was measured in Packardt Top count after addition of liquid scintillant. […]
Provide the reported inhibition at 1 µM of each item.
Value expressed in %; do not type the unit.

Lookup result for COc1cccc(CCCC(=O)NC2CC3(CCC3)Oc3c(Cl)cc(F)cc32)c1OC1CCCC1 (centres unmarked) [Example 97] ; measured inhibition at 1 µM: 60

Lookup result for O=C(CCc1ccc2ccccc2n1)NC1CC2(CCC2)Oc2ccc(Cl)cc21 (centres unmarked) [Example 76] ; measured inhibition at 1 µM: 23.5

Lookup result for O=C(Cc1cccc2ccccc12)NC1CC2(CCC2)Oc2ccc(F)cc21 (centres unmarked) [Example 10] ; measured inhibition at 1 µM: 13.7

Lookup result for COc1ccc(CCC(=O)N[C@H]2CC3(CCC3)Oc3ccc(Cl)cc32)c2ccccc12 [Example 70] ; measured inhibition at 1 µM: 66.1

Lookup result for O=C(Cc1cccc2ccccc12)NC1CC2(CCC2)Oc2cc(Cl)ccc21 (centres unmarked) [Example 14] ; measured inhibition at 1 µM: 9.8

Lookup result for CCCOc1c(CCC(=O)NC2CC3(CCC3)Oc3c(Cl)cc(Cl)cc32)cccc1NS(C)(=O)=O (centres unmarked) [Example 61] ; measured inhibition at 1 µM: 45.1

Lookup result for COc1cccc(CCC(=O)NC2CC3(CCC3)Oc3ccc(Cl)cc32)c1OCC1CC1 (centres unmarked) [Example 41] ; measured inhibition at 1 µM: 49

Lookup result for O=C(CCc1ccc2c(c1)OCCO2)NC1CC2(CCC2)Oc2ccc(F)cc21 (centres unmarked) [Example 81] ; measured inhibition at 1 µM: 29.1

Lookup result for O=C(CCc1ccccc1OC1CCCC1)NC1CC2(CCC2)Oc2ccc(Cl)cc21 (centres unmarked) [Example 28] ; measured inhibition at 1 µM: 58

Lookup result for COc1cccc(CCC(=O)NC2CC3(CCCCC3)Oc3ccc(Cl)cc32)c1OC1CCCC1 (centres unmarked) [Example 87] ; measured inhibition at 1 µM: 26.7

Lookup result for CC(C)Oc1ccc(NS(C)(=O)=O)cc1CCC(=O)NC1CC2(CCC2)Oc2c(Cl)cc(Cl)cc21 (centres unmarked) [Example 62] ; measured inhibition at 1 µM: 13.5

Lookup result for O=C(Cc1noc2ccccc12)N[C@H]1CC2(CCC2)Oc2ccc(Cl)cc21 [Example 27] ; measured inhibition at 1 µM: 5.3

Lookup result for CCCCOc1c(CCC(=O)NC2CC3(CCC3)Oc3c(Cl)cc(Cl)cc32)cccc1NS(C)(=O)=O (centres unmarked) [Example 63] ; measured inhibition at 1 µM: 73.3

Lookup result for Cc1cccc(CCC(=O)N[C@@H]2CC3(CCC3)Oc3ccc(Cl)cc32)c1OC1CCCC1 [Example 53] ; measured inhibition at 1 µM: 61.9

Lookup result for COc1cccc(CCC(=O)NC2CC3(CCC3)Oc3cccc(O)c32)c1OC1CCCC1 (centres unmarked) [Example 51] ; measured inhibition at 1 µM: 37.1

Lookup result for O=C(Cc1noc2ccccc12)N[C@@H]1CC2(CCC2)Oc2ccc(Cl)cc21 [Example 26] ; measured inhibition at 1 µM: 29.4

Lookup result for COc1cccc(CCC(=O)NC2CC(C)(C)Oc3ccccc32)c1OC1CCCC1 (centres unmarked) [Example 88] ; measured inhibition at 1 µM: 17.1

###

- systemUnderTest: Human TRPV3 (Homo sapiens)
- Construct: expressed in transfected cells; host or cells: CHO cells (G-418 selected)
- Sequence (Q8NET8 1-790): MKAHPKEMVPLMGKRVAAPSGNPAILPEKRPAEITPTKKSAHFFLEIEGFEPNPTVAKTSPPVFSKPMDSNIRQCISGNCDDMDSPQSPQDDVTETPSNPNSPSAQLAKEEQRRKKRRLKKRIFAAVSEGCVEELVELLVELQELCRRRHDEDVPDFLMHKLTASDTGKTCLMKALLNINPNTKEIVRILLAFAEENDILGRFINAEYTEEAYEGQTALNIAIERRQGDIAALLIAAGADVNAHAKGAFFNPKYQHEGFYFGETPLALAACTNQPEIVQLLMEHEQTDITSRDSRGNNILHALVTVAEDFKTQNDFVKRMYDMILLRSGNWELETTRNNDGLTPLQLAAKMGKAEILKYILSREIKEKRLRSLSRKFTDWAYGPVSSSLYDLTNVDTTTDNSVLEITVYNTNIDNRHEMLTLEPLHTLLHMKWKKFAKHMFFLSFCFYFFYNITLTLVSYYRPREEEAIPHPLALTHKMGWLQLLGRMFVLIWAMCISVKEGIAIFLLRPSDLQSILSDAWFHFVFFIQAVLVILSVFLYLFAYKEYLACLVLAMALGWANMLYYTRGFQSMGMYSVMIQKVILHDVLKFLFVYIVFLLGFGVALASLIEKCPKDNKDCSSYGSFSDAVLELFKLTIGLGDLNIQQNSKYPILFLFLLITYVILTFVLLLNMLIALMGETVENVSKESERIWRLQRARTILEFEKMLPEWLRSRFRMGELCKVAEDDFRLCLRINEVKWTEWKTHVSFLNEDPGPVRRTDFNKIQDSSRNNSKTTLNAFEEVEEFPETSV
- testName: 45Calcium uptake assay: inhibition of 2-APB induced cellular uptake of radioactive calcium
- Format: cell-based
- statedConditions: 1.0 μM compound; human TRPV3 expressing CHO cells; 2-APB 500 μM; read-out: Percentage inhibition at 1.0 μM
- Procedure: The illustrative examples of the present invention are screened for TRPV3 activity according to a modified procedure described in Toth, A. et al. Life Sciences (2003), 73, 487-498. […] The inhibition of TRPV3 receptor activation was followed as inhibition of 2-APB induced cellular uptake of radioactive calcium. […] Radioactivity in the lysate was measured in Packardt Top count after addition of liquid scintillant. […]
Could you label it Yes if measured inhibition at 1 µM is 40% or higher, and No otherwise?

// query hey, is inhibition at 1 µM for this one >= 40%? O=C(CCc1cccc2c1OCO2)NC1CC2(CCC2)Oc2c(Cl)cccc21 (centres unmarked)
// result No

// query hey, is inhibition at 1 µM for this one >= 40%? COc1cccc(CCC(=O)NC2CC3(CCC3)Oc3ccccc32)c1OC1CCCC1 (centres unmarked)
// result Yes

// query hey, is inhibition at 1 µM for this one >= 40%? COc1ccc2ccccc2c1CCC(=O)N[C@@H]1CC2(CCC2)Oc2ccc(Cl)cc21
// result No

// query hey, is inhibition at 1 µM for this one >= 40%? COc1cccc(CCCC(=O)N[C@@H]2CC3(CCC3)Oc3c(Cl)cccc32)c1OC1CCCC1
// result Yes

// query hey, is inhibition at 1 µM for this one >= 40%? Cc1c(CC(=O)NC2CC3(CCC3)Oc3ccc(F)cc32)[nH]c2ccc(F)cc12 (centres unmarked)
// result No

// query hey, is inhibition at 1 µM for this one >= 40%? COc1cccc(CCCC(=O)N[C@@H]2CC3(CCC3)Oc3ccc(Cl)cc32)c1OC1CCCC1
// result Yes

// query hey, is inhibition at 1 µM for this one >= 40%? CCOc1c(CCC(=O)NC2CC3(CCC3)Oc3c(Cl)cccc32)cccc1OC (centres unmarked)
// result Yes

// query hey, is inhibition at 1 µM for this one >= 40%? COc1cccc(CCC(=O)NC2CC3(CCC3)Oc3ccc(Cl)cc32)c1OCc1ccccc1 (centres unmarked)
// result Yes

// query hey, is inhibition at 1 µM for this one >= 40%? O=C(CCc1cccc2c1OCO2)NC1CC2(CCC2)Oc2ccc(Cl)cc21 (centres unmarked)
// result No

// query hey, is inhibition at 1 µM for this one >= 40%? COc1cccc(CCC(=O)NC2CC3(CCC3)Oc3c(Cl)cc(Cl)cc32)c1OC1CCCC1 (centres unmarked)
// result Yes

// query hey, is inhibition at 1 µM for this one >= 40%? COc1cccc(CCCC(=O)N[C@H]2CC3(CCC3)Oc3ccc(Cl)cc32)c1OC1CCCC1
// result Yes

// query hey, is inhibition at 1 µM for this one >= 40%? O=C(Cc1ccc2ccccc2c1)NC1CC2(CCC2)Oc2ccc(Cl)cc21 (centres unmarked)
// result No

// query hey, is inhibition at 1 µM for this one >= 40%? COc1cccc(CCCC(=O)NC2CC(C)(C)Oc3ccc(Cl)cc32)c1OC1CCCC1 (centres unmarked)
// result Yes

// query hey, is inhibition at 1 µM for this one >= 40%? CC(C)Oc1c(CCC(=O)NC2CC3(CCC3)Oc3c(Cl)cccc32)cccc1NS(C)(=O)=O (centres unmarked)
// result Yes

// query hey, is inhibition at 1 µM for this one >= 40%? O=C(CCc1ccc(OC(F)F)c2ccccc12)N[C@H]1CC2(CCC2)Oc2ccc(Cl)cc21
// result Yes

// query hey, is inhibition at 1 µM for this one >= 40%? COc1cccc(CCCC(=O)NC2CC3(CCC3)Oc3cc(O)ccc32)c1OC1CCCC1 (centres unmarked)
// result No

// query hey, is inhibition at 1 µM for this one >= 40%? COc1ccccc1CC(=O)NC1CC2(CCC2)Oc2ccc(Cl)cc21 (centres unmarked)
// result No
